# Read-out: Tumor necrosis factor receptor 1 (TNFRSF1A), TNFRSF1A (gene 7132)
# test_protocol: LTEA_HepaRG_TNFRSF1A: Life Technologies and Expression Analysis (LTEA) Assay for Tumor necrosis factor receptor 1 (TNFRSF1A) using HepaRG (AID 2283535)
# measurement_parameters: mRNA level, 48 h; actives raise or lower the signal
# Description: LTEA_HepaRG is a cell based, multiplexed-readout assay that uses HepaRG, a human liver cell line, with measurements taken at 48 hours after chemical dosing on a 96-well plate.LTEA_HepaRG_TNFRSF1A is one of 102 assay component(s) measured in the LTEA HepaRG cell culture assay. It is a marker of Cell proliferation, survival, death.Data from the assay component LTEA_HepaRG_TNFRSF1A was analyzed into 1 endpoint. […]
Active and inactive are the calls of the source. How the source made its calls: active means hit-call score of the fitted dose curve at least 0.9, where 1 is the maximum; inactive means score below 0.9.
Possible outcomes: active, inactive

{"compound": "CC(=O)NC1(c2cccc(F)c2)CCN(CC[C@@]2(c3ccc(Cl)c(Cl)c3)CN(c3ccccc3)C(=O)CO2)CC1", "class": "inactive"}
{"compound": "CCCCC(CC)COC(=O)CCCCC(=O)OCc1ccccc1 (configuration not stated)", "class": "inactive"}
{"compound": "CCCCCCC(=O)O", "class": "inactive"}
{"compound": "OCCC(F)(F)C(F)(F)C(F)(F)C(F)(F)C(F)(F)C(F)(F)C(F)(F)C(F)(F)F", "class": "inactive"}
{"compound": "NC(=O)N1C(=O)C(C(=O)c2cc(Cl)cs2)c2cc(F)c(Cl)cc21 (configuration not stated)", "class": "active"}
{"compound": "CN1CCC[C@H]1c1cccnc1", "class": "inactive"}
{"compound": "CN(C)C=O", "class": "inactive"}
